Recorded values, source patent US10774071B2.

target: PD-L1 (Homo sapiens (Human), UniProt Q9NZQ7); experiment: PD-L1/PD-L1 dimerization biochemical protein-protein interaction assay (ALPHA); type: binding; conditions: 0.5 nM His tagged PD-L1 and 0.5 nM FLAG tagged PD-L1, Table 4B, read-out: AC50 PDL1 Dimer 1 nM
Sequence (Q9NZQ7 19-238): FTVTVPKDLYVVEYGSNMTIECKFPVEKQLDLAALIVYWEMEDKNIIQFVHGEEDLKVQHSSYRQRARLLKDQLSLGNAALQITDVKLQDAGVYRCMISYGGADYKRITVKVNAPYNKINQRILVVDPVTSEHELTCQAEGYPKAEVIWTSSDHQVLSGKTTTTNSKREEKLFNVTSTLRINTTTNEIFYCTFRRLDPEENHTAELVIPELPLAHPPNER
Sequence (Q9NZQ7 19-238): as above
measure: AC50 (nM)

QUERY: Short answer please: AC50, PD-L1 (Homo sapiens (Human), UniProt Q9NZQ7), entry COc1cc(-c2cccc(-c3cccc4c3CC[C@@H]4Oc3nc(OC)c(CNC4(C(=O)O)CC4)cc3C(F)(F)F)c2Cl)ccc1CNC[C@@H]1CCC(=O)N1
RESULT: 2.65

I: COc1cc(-c2cccc(-c3cccc4c3CC[C@@H]4Oc3nc(OC)c(CN4CC[C@@H](C(=O)O)C4)cc3C(F)(F)F)c2Cl)cc(F)c1CNC[C@@H]1CCC(=O)N1
II: COc1nc(-c2cccc(-c3cccc4c3CC[C@@H]4Oc3nc(OC)c(C(C)NCCC(=O)O)cc3C(F)(F)F)c2Cl)ccc1CNC[C@@H]1CCC(=O)N1 (stereo partly drawn)
QUERY: Of I and II , whose reported AC50 is numerically smaller? Answer by quoting the chosen item's label.
RESULT: I
(I: 5.79 nM, II: 18.2 nM)

* * *

molecular target: PD-L1 (Homo sapiens (Human), UniProt Q9NZQ7); assay: PD-L1/PD-L1 dimerization biochemical protein-protein interaction assay (ALPHA); type: binding; conditions: 0.5 nM His tagged PD-L1 and 0.5 nM FLAG tagged PD-L1, Table 4B, read-out: AC50 PDL1 Dimer 1 nM
measure: AC50 (nM)

QUERY: Could you tell me which AC50 is on file for COc1nc(-c2cccc(-c3cccc4c3CC[C@@H]4Oc3nc(OC)c(CN4CCC[C@@]4(C)C(=O)O)cc3C(F)(F)F)c2Cl)ccc1CNC[C@@H]1CCC(=O)N1 ?
RESULT: 3.92

QUERY: Sample COc1nc(O[C@H]2CCc3c(-c4cccc(-c5cnc([C@@H](C)NC[C@H]6CCC(=O)N6)c(OC)n5)c4Cl)cccc32)c(Cl)cc1CN1CC[C@@H](C(=O)O)C1 — what was its AC50?
RESULT: 70.8

QUERY: Consider the molecule shown here: COc1cc(O[C@H]2CCc3c(-c4cccc(-c5ccc(CNC[C@@H]6CCC(=O)N6)c(OC)n5)c4Cl)cccc32)c(C(F)(F)F)cc1CNC[C@@H](O)CC(=O)O What is its recorded AC50?
RESULT: 13.5

P: COc1nc(-c2cccc(-c3cccc4c3CC[C@@H]4Oc3nc(OC)c(CNC[C@@H]4CCC(=O)N4)nc3Cl)c2Cl)ccc1CNC[C@@H]1CCC(=O)N1
Q: COc1nc(-c2cccc(-c3cccc4c3CC[C@@H]4Oc3nc(OC)c(CN4CC(C(=O)N=S(C)(=O)NC(C)=O)C4)cc3Cl)c2Cl)ccc1CNC[C@@H]1CCC(=O)N1 (some centres unmarked)
QUERY: Between the entries labelled P and Q , which has a larger AC50 value on record? Provide the label of your selected option as the answer.
RESULT: P
(P: 102 nM, Q: 24.9 nM)

* * *

target: PD-1/PD-L1 (Homo sapiens (Human)); experiment: PD-1/PD-L1 biochemical protein-protein interaction assay (ALPHA); format: binding; conditions: 0.3 nM His tagged PD-L1, 2.5 nM biotinylated Fc-PD-1, Table 3B, read-out: IC50 PD-L1-PD1
measure: IC50 (nM)

QUERY: Checklist item: IC50 tested on PD-1/PD-L1 (Homo sapiens (Human)), entry COC[C@H](NCc1cc(C(F)(F)F)c(O[C@H]2CCc3c(-c4cccc(-c5ccc(CNC[C@@H]6CCC(=O)N6)c(OC)n5)c4Cl)cccc32)nc1OC)C(=O)O [B-264] , value?
RESULT: 0.064

QUERY: Lab note: need IC50 for COc1nc(O[C@H]2CCc3c(-c4cccc(-c5cc(C)c(CN6C[C@@H]7[C@H](C6)[C@H]7C(=O)O)c(OC)n5)c4Cl)cccc32)c(Cl)cc1CNC[C@@H]1CCC(=O)N1 [B-124] on PD-1/PD-L1 (Homo sapiens (Human)), anyone have it?
RESULT: 0.084

QUERY: Report IC50 for COc1cc(-c2cccc(-c3cccc4c3CC[C@@H]4Oc3nc(OC)c(CN4CC5(C(=O)O)CCC4CC5)cc3C(F)(F)F)c2Cl)cc(F)c1CNC[C@@H]1CCC(=O)N1 [B-194] tested on PD-1/PD-L1 (Homo sapiens (Human)).
RESULT: 0.064

QUERY: Checklist item: IC50 tested on PD-1/PD-L1 (Homo sapiens (Human)), entry COc1nc(-c2cccc(-c3cccc4c3CC[C@@H]4Oc3nc(OCc4cncc(Cl)c4)c(CN4CC5(C(=O)O)CCC4CC5)cc3Cl)c2Cl)ccc1CNC[C@@H]1CCC(=O)N1 [B-48] , value?
RESULT: 0.064

QUERY: Find the measured IC50: item COc1nc(-c2cccc(-c3cccc4c3CC[C@@H]4Oc3nc(OC)c(CN4CC5(C(=O)O)CCC4CC5)cc3C(F)(F)F)c2Cl)ccc1CNC[C@H]1C[C@](C)(O)C1 [B-209] , target or system PD-1/PD-L1 (Homo sapiens (Human)).
RESULT: 0.064

* * *

molecular target: PD-1/PD-L1 (Homo sapiens (Human), UniProt Q9NZQ7); assay: PD-1/PD-L1 biochemical protein-protein interaction assay (ALPHA); assay type: binding; conditions: 0.3 nM His tagged PD-L1, 2.5 nM biotinylated Fc-PD-1, readings of 0.064 nM are equal to or less than 0.064 nM, read-out: IC50 PD-L1-PD1
IC50 for assorted molecules

QUERY: For the molecule CCC1C(C(=O)O)CCN1Cc1cc(C(F)(F)F)c(N[C@H]2CCc3c(-c4cccc(-c5ccc(CNC[C@@H]6CCC(=O)N6)c(OC)n5)c4Cl)cccc32)nc1OC (stereo partly drawn) [A-79] , what IC50 is on record?
RESULT: ≤ 0.064 nM

More entries:
QUERY: What value of IC50 has been reported for the following molecule? CCC1C(C(=O)O)CCN1Cc1nc(C(F)(F)F)c(N[C@H]2CCc3c(-c4cccc(-c5ccc(CNC[C@@H]6CCC(=O)N6)c(OC)n5)c4Cl)cccc32)nc1OC (stereo partly drawn) [A-77]
RESULT: ≤ 0.064 nM

QUERY: Look at this molecule and give its reported IC50. COc1nc(-c2cccc(-c3cccc4c3CC[C@@H]4Nc3nc(OC)c(CNC[C@@H]4CCC(=O)N4)cc3Cl)c2Cl)ccc1CNC[C@@H]1CCC(=O)N1 [A-9]
RESULT: 1.66 nM

QUERY: Item under review: COc1nc(-c2cccc(-c3cccc4c3CC[C@@H]4Nc3nc(OC)c(CNC(C)(C)C(=O)O)cc3C(F)(F)F)c2Cl)ccc1CN[C@H]1C[C@](C)(O)C1 [A-92] . Reported IC50?
RESULT: ≤ 0.064 nM

QUERY: If you can, please state the reported IC50 value of COc1nc(-c2cccc(-c3cccc4c3CC[C@@H]4Nc3nc(OC)c(CN4CC5(C(=O)O)CCC4CC5)nc3C(F)(F)F)c2Cl)ccc1CNC[C@@H]1CC(O)C(=O)N1 (stereo partly drawn) [A-47] .
RESULT: ≤ 0.064 nM

QUERY: Query (molecule): COc1cc(N[C@H]2CCc3c(-c4cccc(-c5ccc(CNC[C@@H]6CCC(=O)N6)c(OC)n5)c4Cl)cccc32)c(Cl)cc1CN1CC2(C(=O)O)CCC1CC2 [A-13] ; field requested: IC50
RESULT: 0.065 nM

* * *

biological target: PD-1/PD-L1 (Homo sapiens (Human)); test: PD-1/PD-L1 biochemical protein-protein interaction assay (ALPHA); format: binding; conditions: 0.3 nM His tagged PD-L1, 2.5 nM biotinylated Fc-PD-1, Table 3B, read-out: IC50 PD-L1-PD1
pIC50: −log10 of the molar value.
measure: pIC50

QUERY: Query for PD-1/PD-L1 (Homo sapiens (Human)): what pIC50 does the record show for COc1nc(-c2cccc(-c3cccc4c3CC[C@@H]4Oc3nc(OC)c(CN4CCCC[C@@]4(C)C(=O)O)cc3C(F)(F)F)c2Cl)ccc1CNC[C@@H]1CCC(=O)N1 [B-135] ?
RESULT: 10.19

QUERY: For PD-1/PD-L1 (Homo sapiens (Human)), provide pIC50 of COc1nc(O[C@H]2CCc3c(-c4cccc(-c5cc(C)c(CNC[C@@H]6CCC(=O)N6)c(OC)n5)c4Cl)cccc32)c(C)cc1CNC1(C(=O)O)CC1 [B-244] please.
RESULT: 10.19

QUERY: Form entry - test system: PD-1/PD-L1 (Homo sapiens (Human)); read-out: pIC50; compound: COc1cc(-c2cccc(-c3cccc4c3CC[C@@H]4Oc3nc(OC)c(CN4CC(C)(C(=O)O)C4)cc3C(F)(F)F)c2Cl)ccc1CNC[C@@H]1CCC(=O)N1 [B-141]
RESULT: 10.19
